# ASSAY TEXT: self-splicing fitness, log relative to wild type (ln ratio); higher = more splicing; Tetrahymena group I intron in knt gene, E. coli kanamycin selection, DiMSum; sequences stand for … in CUCUCU…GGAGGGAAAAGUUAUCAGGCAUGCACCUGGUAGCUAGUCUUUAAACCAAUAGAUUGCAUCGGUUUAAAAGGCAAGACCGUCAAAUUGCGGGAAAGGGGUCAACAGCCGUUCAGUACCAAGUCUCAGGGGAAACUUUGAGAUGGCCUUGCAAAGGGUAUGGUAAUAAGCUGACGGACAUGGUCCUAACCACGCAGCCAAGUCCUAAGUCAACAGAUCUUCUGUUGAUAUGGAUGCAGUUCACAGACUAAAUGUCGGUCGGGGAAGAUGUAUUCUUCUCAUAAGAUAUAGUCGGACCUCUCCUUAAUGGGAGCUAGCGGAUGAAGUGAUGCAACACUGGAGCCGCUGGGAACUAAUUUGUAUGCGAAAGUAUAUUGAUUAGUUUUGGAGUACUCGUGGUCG;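 also: selection with 25 µg/mL kanamycin versus none on LB agar overnight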
# MEASUREMENT CONTEXT: 30 °C
// map self-splicing fitness (ln) onto a label; ranges 1: < -3; 2: ≥ -3 and < -2; 3: ≥ -2

Please review the following examples before continuing.
sequence_text=CCUUAGCAAUAUUACGCUUC category_label=1
sequence_text=UCUUAGCAAUAUUACGAACA category_label=3
sequence_text=CCCGAGCAAUAUUACGUCAU category_label=1
sequence_text=GAUCAGCAAUAUUACGGCGU category_label=3
sequence_text=AACAAGCAAUAUUACGCCAC category_label=1

Which band does `AAUAAGCAAUAUUACGAACU` fall in? 3

Check `AACUAGCAAUAUUACGGGUA` too. 3
